Property measured: melting point

Here's what some known entries look like.
- Cc1nc(OC(F)F)ccc1N1CCCn2c1nc1c(Cl)ccc(C(OC(F)F)C(F)(F)F)c12 (stereo not drawn): 145 to 148 °C
- CCN(CC)c1cccc2nc3n(c12)CC(O)CCN3c1ccc(Cl)cc1Cl (stereo not drawn): 207 to 208 °C
- CCC(OC(C)=O)c1ccc(Cl)c2nc3n(c12)CCCN3c1ccc(OC)nc1C (single isomer, unassigned; (+)) [Example 267]: 110 to 114 °C
- CCC(CC)c1ccc(Cl)c2nc3n(c12)CCCCN3c1ccc(Cl)cc1Cl: 160 to 162 °C

The value of melting point measured for the compound CCC(O)c1cccc2nc3n(c12)CCCN3c1ccc(Cl)cc1Cl (stereo not drawn) turned out to be 186 to 188 °C

The value of melting point measured for the compound CCC(OC(=O)CS(C)(=O)=O)c1ccc(Cl)c2nc3n(c12)CCCN3c1ccc(Cl)cc1Cl (stereo not drawn) turned out to be 187 to 189 °C

The value of melting point measured for the compound Cc1cc(C#N)ccc1N1CCCn2c1nc1c(Cl)ccc(C(OC(F)F)C(F)(F)F)c12 (stereo not drawn) turned out to be 195 to 197 °C

The value of melting point measured for the compound CCN(CC)C(=O)c1cccc2nc3n(c12)CCCN3c1ccc(Cl)cc1Cl turned out to be 183 to 184 °C

The value of melting point measured for the compound OC(c1ccc(Cl)c2nc3n(c12)CCN3c1ccc(Cl)cc1Cl)(C1CC1)C1CC1 turned out to be 238 to 239 °C

The value of melting point measured for the compound CCC(CC)(OC)c1ccc(Cl)c2nc3n(c12)CCCN3c1ccc(Cl)cc1C(F)(F)F turned out to be 172 to 173 °C

The value of melting point measured for the compound O=C1CCCN1c1ccc(Cl)c2nc3n(c12)CCCN3c1ccc(Cl)cc1Cl turned out to be 215 to 216 °C

The value of melting point measured for the compound CCC(OCC(F)F)c1ccc(Cl)c2nc3n(c12)CCCN3c1ccc(OC)nc1C (stereo not drawn) turned out to be 130 to 132 °C

The value of melting point measured for the compound CCCC(OC)c1ccc(Cl)c2nc3n(c12)CCCN3c1ccc(Cl)cc1Cl (stereo not drawn) turned out to be 139 to 140 °C

The value of melting point measured for the compound CCOC(CC)c1ccc(Cl)c2nc3n(c12)CCCN3c1cnc(N(C)C)cc1C (stereo not drawn) turned out to be 179 to 180 °C

The value of melting point measured for the compound COCC(C)(C)c1ccc(Cl)c2nc3n(c12)CCCN3c1ccc(Cl)cc1Cl turned out to be 188 to 190 °C

----------
Property measured: melting point

The value of melting point measured for the compound N#Cc1cccc2nc3n(c12)CCCN3c1ccc(Cl)cc1Cl turned out to be 170 to 171 °C

The value of melting point measured for the compound CCC(O)c1ccc(Cl)c2nc3n(c12)CCCN3c1ccc(Cl)cc1Cl (centres unmarked) [Example 112] turned out to be 244 to 245 °C

The value of melting point measured for the compound CCC(NS(C)(=O)=O)c1ccc(Cl)c2nc3n(c12)CCCN3c1ccc(Cl)cc1Cl (centres unmarked) turned out to be 125 to 126 °C

The value of melting point measured for the compound Cc1nc(C#N)ccc1N1CCCn2c1nc1c(Cl)ccc(C(OC(F)F)C(F)(F)F)c12 (centres unmarked) turned out to be 177 to 180 °C
